# Protocol Details: NCI Yeast Anticancer Drug Screen. Data for the cln2 rad14 strain (AID 165);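 also: 0% = growth equal to vehicle treated cultures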
# Test Parameters: S. cerevisiae cln2 rad14 strain, at 50.0 µM (retest, dose inferred, filed as 5.0), hits give high values
About 79,000 compounds went through this panel and 15% of them were active in at least one assay; those are over-represented in the sample as a whole.
Recorded growth inhibition determines the group label, using low = under 20%, moderate = from 20% up to 90%, high = 90% and over

Compound	Label
Cc1ccc2c(c1)[n+]([O-])c(N)c(C#N)[n+]2[O-]	high
CCC(=O)c1ccc2ccc3ccccc3c2c1	moderate
CCC(c1ccc(O)c(C2CCCCC2)c1)C(CC)c1ccc(OC(=O)c2ccccc2)c(C2CCCCC2)c1 (stereo not drawn)	low
O=C1NOCC1N=Cc1cc(Cl)ccc1O (stereo not drawn)	moderate
O=[N+]([O-])c1ccc(N/N=C/COCCO)c([N+](=O)[O-])c1	low
CNC(=O)OC(C)CN1c2ccccc2Sc2ccc(Cl)cc21 (stereo not drawn)	high
CC(=O)OC1C(C)OC(OC(=O)C2CCC3C(C2)OC2(CC(OC(=O)/C=C/c4ccccc4)C(C)CO2)C32CO2)C(OC2OC(C)C(O)C(OC(C)=O)C2O)C1O (stereo not drawn)	high
COc1cc(C(c2cc3c(cc2O)OCO3)N2CCCCC2)cc(OC)c1OC (stereo not drawn)	low
CCCCc1c2c(nc3c1CCc1cc4cc5c(nc4nc1-3)-c1nc3c(c(CCCC)c1CC5)CCC/C3=N/OC)/C(=N\OC)CCC2	high
Cc1c2ccncc2cc2c3ccccc3n(C)c12	high
COc1cc(OC)cc(C2OC3=C(Nc4ccc([N+](=O)[O-])cc4N3)C2=O)c1 (stereo not drawn)	moderate
CCCCCCCCOc1ccc(/C=C/C(C)=N/NC(N)=NC)cc1OC	high
NC(N)=N/N=C/c1ccc([N+](=O)[O-])o1	low
CNc1ccc(N)cc1	low
S=C(NC(=S)Nc1ccc(Cl)cc1)Nc1ccc(Cl)cc1	low
CCNC(=S)NNC(=S)NNc1ccccc1	moderate
Oc1c(Cl)cc(Cl)c2cccnc12	high
COC(=O)c1cc(OC)c(OC)c(OC)c1	moderate
Cc1[nH]c2ccccc2c1/C=C1\C(=O)C2CCC1C2 (stereo not drawn)	moderate
CCOc1ccccc1-c1nc2c(s1)C(=O)c1ccccc1C2=O	high
O=C(CC(=O)c1ccccc1)CC1(O)CCCCC1	low

====

# Protocol Details: NCI Yeast Anticancer Drug Screen. Data for the bub3 strain (AID 167)
# Test Parameters: S. cerevisiae bub3 mutant strain, at 50.0 µM (retest, dose inferred, filed as 5.0)
The panel holds about 79,000 compounds, 15% with a hit somewhere; the sample as a whole holds those more often. The source made the active and inactive calls. Rule as the data show it: active = growth inhibition above about 70%; inactive = the rest.
Classes used: true (1) = active, false (0) = inactive

Compound	Label
CCOC(=O)c1cnc(SCc2ccc(Cl)cc2Cl)nc1Cl	false (0)
Clc1ccc(-c2cc(-c3cc(-c4ccc(Cl)c(Cl)c4)n[nH]3)[nH]n2)cc1Cl	true (1)
CC1C=C(COC(=O)Nc2ccccc2)ON1c1ccccc1 (stereo not given)	true (1)
CC1=C(C(=O)Nc2ccccc2)C(c2cccc([N+](=O)[O-])c2)C(C(=O)Nc2ccccc2)=C(C)N1	true (1)
CC1=NC(C)=C(/C(C)=N/NC(=O)c2ccccc2O)C(C)/C1=C(/C)NNC(=O)c1ccccc1O (stereo not given)	false (0)
CCOc1ccccc1N1C(=O)C=CC1=O	true (1)
Cn1cc(NC(=O)c2cc(NC(=O)CCCCCCCCC(=O)Nc3cc(C(=O)Nc4cc(C(=O)NCCC(N)N)n(C)c4)n(C)c3)cn2C)cc1C(=O)NCCC(=N)N	true (1)
C=C1C(=O)OC2CC1C(O)C/C(C)=C/CC/C(C)=C/C(O)CC2C (stereo not given)	true (1)
Nc1cc2c(c[n+](CCCCCCCCCC[n+]3cc4c5ccccc5c(N)cc4c4ccccc43)c3ccccc23)c2ccccc12	true (1)
O=C1C=CC(=O)N1c1cccc(F)c1	true (1)
